# studySystem: wild type PPO enzyme (Amaranthus tuberculatus)
# assayRemarks: PPO enzyme assay (recombinant), wild type
# conditionsUsed: 150 μM Protogen
pIC50: −log10 of the molar value.
endpointName: pIC50

>  <smilesData>
C#CCN1C(=O)C(F)(F)Oc2cc(F)c(-n3c(=O)n(C)c(=S)n(C)c3=O)cc21

>  <studySystem>
wild type PPO enzyme (Amaranthus tuberculatus)

>  <endpointName>
pIC50

>  <resultValue>
9.92

$$$$

src = patent US12570994B2
